Target: Cheytin 4
Assay: ITC
pKd: −log10 of the molar value.
Attribute Measured: pKd

binder="P2 domain of the histidine kinase CheA (domain or fragment, biotin (in vivo biotinylation, AviTag)) GFKTFYIKVILKEGTQLKSARIYLVFHKLEELKCEVVRTIPSVEEIEEEKFENEVELFVISPVDLEKLSEALSSIADIERVIIKEV" attribute_measured=pKd experimental_result=6.31
